Target: catalytic domain of the recombinant TACE protein (Homo sapiens, UniProt P78536)
Construct: The catalytic domain of the recombinant TACE protein was expressed and purified; made in house
Sequence (P78536 223-474 limits assumed): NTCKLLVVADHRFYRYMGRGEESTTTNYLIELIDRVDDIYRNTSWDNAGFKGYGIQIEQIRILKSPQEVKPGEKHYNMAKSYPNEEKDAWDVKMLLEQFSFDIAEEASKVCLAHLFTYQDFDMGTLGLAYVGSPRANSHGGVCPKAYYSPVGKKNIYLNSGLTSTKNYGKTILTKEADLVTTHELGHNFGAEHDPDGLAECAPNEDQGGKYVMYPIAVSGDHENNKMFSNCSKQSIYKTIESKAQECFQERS
Assay: TACE FRET assay using TACE cat
Format: biochemical
Procedure: TACE FRET Assay Using TACE Cat “K” is the IC50. Generally, “n” and “B” are floated, noting that n (Hill slope) should be close to 1 and B (background offset) to 0. Pro-TNF-α substrate peptide Abz-[…]-Dpa (AnaSpec, San Jose, Calif., WARC-1) was prepared as a 2 mM stock solution in the TACE assay buffer (50 mM Tris-HCl, pH 7.4, 25 mM NaCl, 4% Glycerol, 0.005% Brij 35). […] The initial rate (slope) of the reaction was determined using a fluorescence plate reader (Molecular Devices, Spectra Max Gemini XS).
pIC50: −log10 of the molar value.
Where pIC50 equals or exceeds 6, the correct label is met; where it does not, the label is not met.

compound: CC#CCOc1ccc(S(=O)(=O)N[C@@H](Cc2cn(Cc3ccccc3F)c3ccc(OC)cc23)C(=O)O)cc1 [Example 58]
assignedClass: not met
--
compound: CC#CCOc1ccc(S(=O)(=O)N[C@@H](Cc2c(C)n(Cc3ccccc3)c3ccc(OC)cc23)C(=O)O)cc1 [Example 185]
assignedClass: met
--
compound: CC#CCOc1ccc(S(=O)(=O)N[C@@H](Cc2c[nH]c3ccc(F)cc23)C(=O)O)cc1 [Example 3]
assignedClass: not met
--
compound: CC#CCOc1ccc(S(=O)(=O)N[C@@H](Cc2cn(Cc3cccc(C(F)(F)F)c3)c3ccc(OC)cc23)C(=O)O)cc1 [Example 56]
assignedClass: not met
--
compound: CC#CCOc1ccc(S(=O)(=O)N[C@@H](Cc2cn(Cc3cccc(OC)c3)c3ccc(OC)cc23)C(=O)O)cc1 [Example 52]
assignedClass: not met
--
compound: CC#CCOc1ccc(S(=O)(=O)NC(Cc2c[nH]c3ccc(OC)cc23)C(=O)O)cc1 (racemic) [Example 4]
assignedClass: met
--
compound: CC#CCOc1ccc(S(=O)(=O)N[C@@H](Cc2c[nH]c3cc(F)ccc23)C(=O)O)cc1 [Example 7]
assignedClass: not met
--
compound: CC#CCOc1ccc(S(=O)(=O)N[C@@H](Cc2c(C)n(Cc3ccc(C#N)cc3)c3ccc(OC)cc23)C(=O)O)cc1 [Example 205]
assignedClass: met
--
compound: CC#CCOc1ccc(S(=O)(=O)N[C@@H](Cc2c(C)n(Cc3ccc(C)cc3)c3ccc(OC)cc23)C(=O)O)cc1 [Example 188]
assignedClass: met
--
compound: CC#CCOc1ccc(S(=O)(=O)N[C@@H](Cc2c(C)n(Cc3ccccc3F)c3ccc(OC)cc23)C(=O)O)cc1 [Example 197]
assignedClass: met
--
compound: CC#CCOc1ccc(S(=O)(=O)N[C@@H](Cc2c(C)n(Cc3ccc(F)cc3)c3ccc(OC)cc23)C(=O)O)cc1 [Example 199]
assignedClass: met
--
compound: CC#CCOc1ccc(S(=O)(=O)N[C@@H](Cc2c(C)n(Cc3ccccc3C(F)(F)F)c3ccc(OC)cc23)C(=O)O)cc1 [Example 193]
assignedClass: met
--
compound: CC#CCOc1ccc(S(=O)(=O)N[C@H](Cc2cn(Cc3ccc(C#N)cc3)c3ccccc23)C(=O)O)cc1 [Example 45]
assignedClass: not met
